Test system: OVCAR-8 ovarian
Protocol Notes: NCI tumour cell line growth inhibition, 48 h; in the data active = GI50 below about 0.43 µM; inactive = the rest
Hi there, use one of these labels in your reply, thanks! active, inactive

Worked examples follow.
[[record]]
molecule = "CCOC(=O)c1sc(=S)c2c(C(=O)OCC)c(C(=O)OCC)sc2c1C(=O)OCC"
class = "inactive"

[[record]]
molecule = "COC1=CC(c2ccc[nH]2)=N/C1=C\\c1[nH]c(C)c(C(=O)CCCCC(=O)Nc2ccccc2)c1C"
class = "inactive"

[[record]]
molecule = "COc1cc(C(=O)c2cc3c(cc2C)OCO3)cc(OC)c1OC"
class = "active"

[[record]]
molecule = "COC(=O)C1=C(C(=O)OC)C23C=C(C)C1C2=C(C)C1(CC1)[C@@](C)(O)C3=O (stereo partly drawn)"
class = "active"

[[record]]
molecule = "COC1=CC(c2ccc[nH]2)=N/C1=C\\c1ccc[nH]1"
class = "active"

[[record]]
molecule = "COc1ccc(/C=C/c2n[nH]c3ccc(N4CCOC4=O)cc23)cc1"
class = "inactive"


QUERY: Entry COc1cc2nc(Nc3cccc(F)c3)nc(Nc3cc(C)[nH]n3)c2cc1OC : call = ?
RESULT: inactive

QUERY: Same thing, different molecule: COc1cc(-n2cc(-c3ccc(Cl)cc3)[nH]c2=O)cc(OC)c1OC
RESULT: inactive

###

Test system: BT-549 breast
Protocol Notes: NCI tumour cell line growth inhibition, 48 h; in the data active means GI50 below about 0.43 µM; inactive means the rest
Hi there, use one of these labels in your reply, thanks! active, inactive

Worked examples follow.
[[record]]
compound = "COc1cc(/C=C2\\COc3ccc(O)c(O)c3C2=O)cc(OC)c1"
class = "inactive"

[[record]]
compound = "CCCN(CCC)c1ccc(/C=N/NC(=O)c2cccnc2)c(Cl)c1"
class = "inactive"

[[record]]
compound = "CCOC(=O)c1sc(Nc2ccc(Cl)cc2)nc1C"
class = "inactive"


QUERY: Entry COc1ccc(C2=NN(C(C)=O)C(c3cn(-c4ccccc4)nc3-c3ccc(Cl)cc3)C2)cc1 (configuration not stated) : call = ?
RESULT: inactive

QUERY: Same thing, different compound: NCCC(O)(P(=O)(O)O)P(=O)(O)O
RESULT: inactive

QUERY: Same thing, different compound: C=C1C(=O)O[C@H]2[C@H]1CC/C(COC(=O)NCc1c[nH]c3ccc(Cl)cc13)=C\CC[C@@]1(C)O[C@@H]21
RESULT: inactive

QUERY: Same thing, different compound: COC1=CC(c2ccc[nH]2)=N/C1=C\c1ccc[nH]1
RESULT: active

###

Answer each item with its documented TGI.
System: LOX IMVI melanoma
Protocol Notes: NCI tumour cell line growth inhibition, 48 h

[[record]]
compound = "COC(=O)C1=C(CO)C2C=CC1C2 (stereo not given)"
result_value = "> 100 µM"

[[record]]
compound = "CC1(C)CN=C(Nc2cccc(C(F)(F)F)c2)S1"
result_value = "> 100 µM"

[[record]]
compound = "Oc1ccc(Cn2c(-c3ccc(O)c(O)c3)nc3ccccc32)cc1O"
result_value = "26 µM"

[[record]]
compound = "CC(C)[C@](O)(C(=O)OCC1CC[N+]2([O-])CC[C@@H](O)C12)[C@H](C)O (stereo not given in full)"
result_value = "> 203 µM"

[[record]]
compound = "COc1ccc2c(c1)OC[C@@H]1c3cc4c(cc3O[C@H]21)OCO4"
result_value = "> 100 µM"


// for each compound in input: emit TGI
1. O=C(c1cccnc1)N1N=C(c2ccc(Cl)cc2)CC1(O)c1cc(F)c(Cl)cc1Cl (stereo not given)
2. O=C(Nc1nc2ncn(CC(COc3ccccc3)OC(=O)c3ccccc3)c2c(=O)[nH]1)c1ccccc1 (stereo not given)
3. N#Cc1cc([N+](=O)[O-])ccc1NC(=O)C(=O)C(C(=O)/C=C/c1ccccc1)C1OC(=O)c2ccccc21 (stereo not given)

RESULT:
31.2 µM
> 100 µM
> 100 µM

// for each compound in input: emit TGI
1. O=C1CC2(CCNCC2)C(=O)N1N1CCCC1
2. CCN(CC)C(=O)COc1ccc(Br)cc1Br

RESULT:
1. > 100 µM
2. > 100 µM

###

Answer each item with its documented TGI.
System: HCT-15 colon
Protocol Notes: NCI tumour cell line growth inhibition, 48 h
Answers are plain numbers, in µM.

[[record]]
structure_string = "c1ccc(/N=N/Nc2ccc(-c3nc4ccccc4[nH]3)cc2)nc1"
result_value = 69.9


Here is another molecule to look at.
QUERY: Fill blank: measured TGI of the molecule COc1cc2nc(Nc3cccc(F)c3)nc(Nc3cc(C)[nH]n3)c2cc1OC is ____.
RESULT: 2.72

###

Answer each item with its documented TGI.
Tested on: SF-268 CNS
Protocol Notes: NCI tumour cell line growth inhibition, 48 h

[[record]]
molecule = "CN(C)CCNC(=O)c1cccc2[nH]c(-c3ccccc3)nc12"
result_value = "46.3 µM"

[[record]]
molecule = "CC1OC(OCC2COC(O)(Oc3c(-c4ccc(O)c(O)c4)oc4cc(O)cc(O)c4c3=O)C(O)C2O)C(O)C(O)C1O (stereo not given)"
result_value = "> 100 µM"

[[record]]
molecule = "NS(=O)(=O)c1ccc(CCN=C=S)cc1"
result_value = "10.1 µM"

[[record]]
molecule = "O=C(CCCl)NNC1=NCCN1"
result_value = "> 100 µM"


Here is another molecule to look at.
QUERY: Fill blank: measured TGI of the molecule CCCCCCCCCCCCCCCCOCC(COP(=O)([O-])OCC[N+](C)(C)C)OCCCCCCCCCCCCCCCC (stereo not given) is ____.
RESULT: > 100 µM

###

Answer each item with its documented TGI.
Tested on: OVCAR-3 ovarian
Protocol Notes: NCI tumour cell line growth inhibition, 48 h

Field: example entries. Status: answers known.
[[record]]
compound = "N#CCCN(c1ccc(-c2nnc(NC(=O)CNNC(=O)CC(=O)Nc3ccccc3)s2)cc1)S(=O)(=O)c1ccccc1"
result_value = "> 100 µM"

[[record]]
compound = "NCCC(O)(P(=O)(O)O)P(=O)(O)O"
result_value = "> 100 µM"

[[record]]
compound = "O=[N+]([O-])O.[Ga]"
result_value = "6920 µM"


// for each compound in input: emit TGI
1. Cc1ccc(S(=O)(=O)OC2C(C3COC(C)(C)O3)OC3OC(C)(C)OC32)cc1 (configuration not stated)
2. NCc1nnn(Cc2ccccc2)c1N

RESULT:
1: > 100 µM; 2: > 100 µM

// for each compound in input: emit TGI
1. COc1ccc(/C=C/c2n[nH]c3ccc(N4CCOC4=O)cc23)cc1
2. COc1ccc(/C=C2\CCC(C)(CN(C)C)C2=O)cc1 (configuration not stated)
3. Nc1ncnc2c1ncn2C1OC(CO)=CC1O (configuration not stated)
4. Cc1cc(Cl)ccc1N=C1NC(=O)C(CC(=O)Nc2ccc(Cl)cc2Cl)S1 (configuration not stated)
5. COc1ccc(C(c2c(O)c3ccccc3n(C)c2=O)c2c(O)c3ccccc3n(C)c2=O)cc1
6. C[C@@H]1C=C2C(=O)O[C@@H]3CC[C@H](C1)[C@]23O
7. CN(CCCCN(C)CCc1ccc(Cl)c(Cl)c1)CCCCN1CCCC1
8. O=c1ccn2n1CCCCC2

RESULT:
1. 9.42 µM
2. > 100 µM
3. > 37.5 µM
4. > 100 µM
5. > 100 µM
6. 11.1 µM
7. 4.34 µM
8. > 100 µM

// for each compound in input: emit TGI
1. O=C1CCC2(CC1)SCCCS2
2. CN(C)CCNC(=O)c1cccc2[nH]c(-c3ccccc3)nc12
3. O=C(Nc1nc2ncn(CC(COc3ccccc3)OC(=O)c3ccccc3)c2c(=O)[nH]1)c1ccccc1 (configuration not stated)

RESULT:
> 100 µM
50.3 µM
> 100 µM

###

Test system: UACC-257 melanoma
Protocol Notes: NCI tumour cell line growth inhibition, 48 h
Answer each item with its documented TGI.
One number for each entry, in µM.

Field: example entries. Status: answers known.
[[record]]
compound = "O=C(c1cccnc1)N1N=C(c2ccc(Cl)cc2)CC1(O)c1cc(F)c(Cl)cc1Cl (stereo not given)"
parameter_measured = "TGI"
readout_unit = "µM"
result_value = 63.7

[[record]]
compound = "Cn1c(-c2ccc(/C=N\\N3CCN(/N=C/c4ccc(-c5c[n+]6ccsc6n5C)cc4)CC3)cc2)c[n+]2ccsc12"
parameter_measured = "TGI"
readout_unit = "µM"
result_value = 67.9

[[record]]
compound = "CC1=C(C(=O)NCc2ccccc2)C(c2ccccc2[N+](=O)[O-])C(C(=O)NCc2ccccc2)=C(C)N1"
parameter_measured = "TGI"
readout_unit = "µM"
result_value = 29.4


Here is another compound to look at.
QUERY: Fill blank: measured TGI of the compound CC(C)(C)C(=O)C1CC(=O)c2ccccc2C1=O (stereo not given) is ____.
RESULT: 46.1
